System: 993429-296-R-J1-PDC complex spheroid growth, percent test/control
Procedure Text: Anticancer human tumor 993429-296-R-J1-PDC patient-derived uterine sarcoma cell line growth inhibition [Asc]
Assay Context: second compound 1 µM; first compound 0.01 µM; hits give low values
Each entry below carries its reported viability, T/C.
Just the number please, in %, no unit attached.

{"Compound": "Cn1ncnc1[C@H]1c2n[nH]c(=O)c3cc(F)cc(c23)N[C@@H]1c1ccc(F)cc1 + CNC(C)C(=O)NC1CN(S(=O)(=O)c2cccc(S(=O)(=O)N3CCC4CCC(C(=O)NC(c5ccccc5)c5ccccc5)N4C(=O)C(NC(=O)C(C)NC)C3)c2)CCC2CCC(C(=O)NC(c3ccccc3)c3ccccc3)N2C1=O", "Readout": "viability, T/C", "Value Reported": 39.4}

# viability, T/C of Cn1ncnc1[C@H]1c2n[nH]c(=O)c3cc(F)cc(c23)N[C@@H]1c1ccc(F)cc1 + Cc1c(S(C)(=O)=O)c(-c2cc(F)cc(N3CCN(c4ccc(NS(=O)(=O)c5ccc(NC(CCN6CCC(C(=O)OCCCP(=O)(O)O)CC6)CSc6ccccc6)c(S(=O)(=O)C(F)(F)F)c5)cc4)CC3)c2)c(-c2ccc(Cl)cc2)n1C(C)C = 35.8

---

System: 993429-296-R-J1-PDC complex spheroid growth, percent test/control
Procedure Text: Anticancer human tumor 993429-296-R-J1-PDC cell line growth inhibition [Asc];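 further: spheroids exposed to compounds for seven days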
Assay Context: second compound 0.316 µM; first compound 0.00316 µM; hits give low values
Readout: viability, T/C (%)
Just the number please, in %, no unit attached.

{"Molecule": "Cn1ncnc1[C@H]1c2n[nH]c(=O)c3cc(F)cc(c23)N[C@@H]1c1ccc(F)cc1 + CNC(C)C(=O)NC1CN(S(=O)(=O)c2cccc(S(=O)(=O)N3CCC4CCC(C(=O)NC(c5ccccc5)c5ccccc5)N4C(=O)C(NC(=O)C(C)NC)C3)c2)CCC2CCC(C(=O)NC(c3ccccc3)c3ccccc3)N2C1=O", "Units Label": "%", "viability, T/C": 54.8}
{"Molecule": "NC1CCC(NC2CC2c2ccccc2)CC1 (configuration not stated) + Cc1c(S(C)(=O)=O)c(-c2cc(F)cc(N3CCN(c4ccc(NS(=O)(=O)c5ccc(NC(CCN6CCC(C(=O)OCCCP(=O)(O)O)CC6)CSc6ccccc6)c(S(=O)(=O)C(F)(F)F)c5)cc4)CC3)c2)c(-c2ccc(Cl)cc2)n1C(C)C", "Units Label": "%", "viability, T/C": 57}

Read the next record carefully.
# viability, T/C of O=C(c1ccc(F)c(F)c1Nc1ccc(I)cc1F)N1CC(O)([C@@H]2CCCCN2)C1 + CNC(C)C(=O)NC1CN(S(=O)(=O)c2cccc(S(=O)(=O)N3CCC4CCC(C(=O)NC(c5ccccc5)c5ccccc5)N4C(=O)C(NC(=O)C(C)NC)C3)c2)CCC2CCC(C(=O)NC(c3ccccc3)c3ccccc3)N2C1=O = 48.3

---

Tested on: 993429-296-R-J1-PDC complex spheroid growth, percent test/control
Procedure Text: Anticancer human tumor 993429-296-R-J1-PDC cell line growth inhibition [Asc];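 further: spheroids exposed to compounds for seven days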
Assay Context: second compound 0.316 µM; first compound 0.0316 µM; hits give low values
Each entry below carries its reported viability, T/C.
Just the number please, in %, no unit attached.

Solved cases below.
{"Compound": "C#Cc1c(F)ccc2cc(O)cc(-c3ncc4c(N5CC6CCC(C5)N6)nc(OCC56CCCN5CC(F)C6)nc4c3F)c12 (centres undefined) + CNC(C)C(=O)NC1CN(S(=O)(=O)c2cccc(S(=O)(=O)N3CCC4CCC(C(=O)NC(c5ccccc5)c5ccccc5)N4C(=O)C(NC(=O)C(C)NC)C3)c2)CCC2CCC(C(=O)NC(c3ccccc3)c3ccccc3)N2C1=O", "viability, T/C, %": 45.2}
{"Compound": "C=CC(=O)N1CCN(c2nc(=O)n(-c3c(C)ccnc3C(C)C)c3nc(-c4c(O)cccc4F)c(F)cc23)C(C)C1 (centres undefined) + Cc1c(S(C)(=O)=O)c(-c2cc(F)cc(N3CCN(c4ccc(NS(=O)(=O)c5ccc(NC(CCN6CCC(C(=O)OCCCP(=O)(O)O)CC6)CSc6ccccc6)c(S(=O)(=O)C(F)(F)F)c5)cc4)CC3)c2)c(-c2ccc(Cl)cc2)n1C(C)C", "viability, T/C, %": 79}

# viability, T/C of NC1CCC(NC2CC2c2ccccc2)CC1 (centres undefined) + CNC(C)C(=O)NC1CN(S(=O)(=O)c2cccc(S(=O)(=O)N3CCC4CCC(C(=O)NC(c5ccccc5)c5ccccc5)N4C(=O)C(NC(=O)C(C)NC)C3)c2)CCC2CCC(C(=O)NC(c3ccccc3)c3ccccc3)N2C1=O = 53.2

# viability, T/C of CNC(C)C(=O)NC1CN(S(=O)(=O)c2cccc(S(=O)(=O)N3CCC4CCC(C(=O)NC(c5ccccc5)c5ccccc5)N4C(=O)C(NC(=O)C(C)NC)C3)c2)CCC2CCC(C(=O)NC(c3ccccc3)c3ccccc3)N2C1=O (centres undefined) + Cc1c(S(C)(=O)=O)c(-c2cc(F)cc(N3CCN(c4ccc(NS(=O)(=O)c5ccc(NC(CCN6CCC(C(=O)OCCCP(=O)(O)O)CC6)CSc6ccccc6)c(S(=O)(=O)C(F)(F)F)c5)cc4)CC3)c2)c(-c2ccc(Cl)cc2)n1C(C)C = 54.3

# viability, T/C of O=C(c1ccc(F)c(F)c1Nc1ccc(I)cc1F)N1CC(O)([C@@H]2CCCCN2)C1 + Cc1c(S(C)(=O)=O)c(-c2cc(F)cc(N3CCN(c4ccc(NS(=O)(=O)c5ccc(NC(CCN6CCC(C(=O)OCCCP(=O)(O)O)CC6)CSc6ccccc6)c(S(=O)(=O)C(F)(F)F)c5)cc4)CC3)c2)c(-c2ccc(Cl)cc2)n1C(C)C = 29.1

# viability, T/C of COc1c(OCCCN2CCOCC2)ccc2c3n(c(=NC(=O)c4cnc(N)nc4)nc12)CCN3 + Cc1c(S(C)(=O)=O)c(-c2cc(F)cc(N3CCN(c4ccc(NS(=O)(=O)c5ccc(NC(CCN6CCC(C(=O)OCCCP(=O)(O)O)CC6)CSc6ccccc6)c(S(=O)(=O)C(F)(F)F)c5)cc4)CC3)c2)c(-c2ccc(Cl)cc2)n1C(C)C = 22.2

# viability, T/C of COc1c(OCCCN2CCOCC2)ccc2c3n(c(=NC(=O)c4cnc(N)nc4)nc12)CCN3 + CNC(C)C(=O)NC1CN(S(=O)(=O)c2cccc(S(=O)(=O)N3CCC4CCC(C(=O)NC(c5ccccc5)c5ccccc5)N4C(=O)C(NC(=O)C(C)NC)C3)c2)CCC2CCC(C(=O)NC(c3ccccc3)c3ccccc3)N2C1=O = 24.5

# viability, T/C of C=C(F)C(=O)N1CCN(c2nc(OCC3CCCN3C)nc3c2CCN(c2cccc4cccc(Cl)c24)C3)CC1CC#N (centres undefined) + CNC(C)C(=O)NC1CN(S(=O)(=O)c2cccc(S(=O)(=O)N3CCC4CCC(C(=O)NC(c5ccccc5)c5ccccc5)N4C(=O)C(NC(=O)C(C)NC)C3)c2)CCC2CCC(C(=O)NC(c3ccccc3)c3ccccc3)N2C1=O = 45.9

# viability, T/C of Cn1ncnc1[C@H]1c2n[nH]c(=O)c3cc(F)cc(c23)N[C@@H]1c1ccc(F)cc1 + Cc1c(S(C)(=O)=O)c(-c2cc(F)cc(N3CCN(c4ccc(NS(=O)(=O)c5ccc(NC(CCN6CCC(C(=O)OCCCP(=O)(O)O)CC6)CSc6ccccc6)c(S(=O)(=O)C(F)(F)F)c5)cc4)CC3)c2)c(-c2ccc(Cl)cc2)n1C(C)C = 33.3

---

Tested on: 993429-296-R-J1-PDC complex spheroid growth, percent test/control
Procedure Text: Anticancer human tumor 993429-296-R-J1-PDC cell line growth inhibition [Asc];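 further: spheroids exposed to compounds for seven days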
Assay Context: second compound 0.01 µM; first compound 0.1 µM; hits give low values
Text: Multicellular complex tumor spheroid response to apoptosis pathway targeting inhibitors Alrizomadlin, Pelcitoclax, and Dasminapant in combination with a variety of drugs and investigational agents in selected tumor cell lines […] Compounds. […] If the clinical Cmax for an agent had not been determined, the highest concentration tested was 10 microM. […]
Each entry below carries its reported viability, T/C.
Just the number please, in %, no unit attached.

Solved cases below.
{"Compound": "Cn1ncnc1[C@H]1c2n[nH]c(=O)c3cc(F)cc(c23)N[C@@H]1c1ccc(F)cc1 + CNC(C)C(=O)NC1CN(S(=O)(=O)c2cccc(S(=O)(=O)N3CCC4CCC(C(=O)NC(c5ccccc5)c5ccccc5)N4C(=O)C(NC(=O)C(C)NC)C3)c2)CCC2CCC(C(=O)NC(c3ccccc3)c3ccccc3)N2C1=O", "Value Reported": 21.3}
{"Compound": "CCN1CCN(Cc2ccc(Nc3ncc(F)c(-c4cc(F)c5nc(C)n(C(C)C)c5c4)n3)nc2)CC1 + CNC(C)C(=O)NC1CN(S(=O)(=O)c2cccc(S(=O)(=O)N3CCC4CCC(C(=O)NC(c5ccccc5)c5ccccc5)N4C(=O)C(NC(=O)C(C)NC)C3)c2)CCC2CCC(C(=O)NC(c3ccccc3)c3ccccc3)N2C1=O", "Value Reported": 68.4}

Read the next record carefully.
# viability, T/C of NC1CCC(NC2CC2c2ccccc2)CC1 (stereo not drawn) + CNC(C)C(=O)NC1CN(S(=O)(=O)c2cccc(S(=O)(=O)N3CCC4CCC(C(=O)NC(c5ccccc5)c5ccccc5)N4C(=O)C(NC(=O)C(C)NC)C3)c2)CCC2CCC(C(=O)NC(c3ccccc3)c3ccccc3)N2C1=O = 63.4

These data points were gathered from PubChem BioAssay AID1963446.
